Molecular target: T1, Human CLDN18.2 (human)
T1 construct: on transfected HEK293-6E cells or native on SNU 601 cells
Experiment: flow cytometry, HEK293-6E + human CLDN18.2, 4PL fit
measurementLabel: Bmax

binder	measurementLabel	experimentalResult
v37407 (antibody, human IgG1, V domains shown, human IgG1-based monoclonal antibody; also called H4-L4) VH: QVQLVESGGGLVQPGGSLRLSCSVSGIDLSSNPMIWVRQAPGKGLEYIGIIDTDGSTYYADWAKGRFTISKDSTTVYLQMNSLRAEDTAVYYCARRLHGSSNGYYDDLWGQGTLVTVSS VL: DGQMTQSPSSVSASVGDRVTITCQASQSIYSYLSWYQQKPGQRPKLLIYKASTLASGVPSRFSGSGSGTDFTLTISSVQPEDFATYYCQQGYTVTNVDKNTFGGGTKVEIK	Bmax	2040
v37408 (antibody, human IgG1, V domains shown, human IgG1-based monoclonal antibody; also called H4-L2) VH: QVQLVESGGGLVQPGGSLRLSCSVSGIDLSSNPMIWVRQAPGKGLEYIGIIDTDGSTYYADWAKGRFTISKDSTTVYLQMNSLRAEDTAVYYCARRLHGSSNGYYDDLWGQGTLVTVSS VL: DGQMTQSPSSVSASVGDRVTITCQASQSIYSYLSWYQQKPGQRPKLLIYKASTLASGVPSRFSGSGSGTDFTLTISSVQPEDAATYYCQQGYTVTNVDKNTFGGGTKVEVK	Bmax	2190
v37411 (antibody, human IgG1, V domains shown, human IgG1-based monoclonal antibody; also called H5-L4; anti-CLDN18.2 mAb) VH: QVQLVESGGGLVQPGGSLRLSCSVSGIDLSSNPMIWVRQAPGKGLQYIGIIDTDGSTYYADWAKGRFTISKDSTTVYLQINSPRAEDTAVYYCARRLHGSSNGYYDDLWGQGTLVTVSS VL: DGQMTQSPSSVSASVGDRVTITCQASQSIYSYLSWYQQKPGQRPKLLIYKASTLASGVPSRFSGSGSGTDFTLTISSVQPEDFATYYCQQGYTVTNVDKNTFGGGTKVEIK	Bmax	2170
v35777 (antibody, human IgG1, V domains shown, also called parental rabbit chimeric; rabbit-human chimeric IgG1/kappa anti-CLDN18.2) VH: QSLEESGGRLVTPGTPLTLTCTVSGIDLSSNPMIWVRQAPGKGLQYIGIIDTDGSTYYASWAKGRFTGSKTSTTVDLKITSPTTEDTATYFCARRLHGSSNGYYDDLWGQGTLVTISS VL: DGVMTQTPSSVSAAVGGTVTIKCQASQSIYSYLSWYQQKPGQRPKLLIYKASTLASGVPSRFKGSGSGTEFTLTISGVQCDDAATYYCQQGYTVTNVDKNTFGGGTEVVVK	Bmax	2070
v37410 (antibody, human IgG1, V domains shown, human IgG1-based monoclonal antibody; also called H3-L4) VH: QVQLVESGGGLVQPGGSLRLSCSVSGIDLSSNPMIWVRQAPGKGLQYIGIIDTDGSTYYADWAKGRFTISKDSSKNTVYLQMNSLRAEDTAVYYCARRLHGSSNGYYDDLWGQGTLVTVSS VL: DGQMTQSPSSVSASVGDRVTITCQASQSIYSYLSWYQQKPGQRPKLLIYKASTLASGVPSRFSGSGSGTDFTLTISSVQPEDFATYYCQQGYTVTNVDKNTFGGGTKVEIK	Bmax	1910

// moving on: another record for Bmax
Asked: What value of measured Bmax is listed for v37409 (antibody, human IgG1, V domains shown, human IgG1-based monoclonal antibody; also called H2-L4) VH: QVQLVESGGGLVQPGGSLRLSCSVSGIDLSSNPMIWVRQAPGKGLEYIGIIDTDGSTYYADWAKGRFTISKDSSKNTVYLQMNSLRAEDTAVYYCARRLHGSSNGYYDDLWGQGTLVTVSS VL: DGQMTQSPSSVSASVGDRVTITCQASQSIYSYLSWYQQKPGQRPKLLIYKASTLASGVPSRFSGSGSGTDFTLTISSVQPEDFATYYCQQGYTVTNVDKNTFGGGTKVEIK ?
Given back: 1960
